src = patent US5696112A

This listing pairs molecules with measured IC50.
System Tested: Human V2 Vasopressin Receptor (Homo sapiens)
Construct: expressed in transfected cells; host or cells: mouse fibroblast cell line LV-2
Sequence (P30518 whole entry): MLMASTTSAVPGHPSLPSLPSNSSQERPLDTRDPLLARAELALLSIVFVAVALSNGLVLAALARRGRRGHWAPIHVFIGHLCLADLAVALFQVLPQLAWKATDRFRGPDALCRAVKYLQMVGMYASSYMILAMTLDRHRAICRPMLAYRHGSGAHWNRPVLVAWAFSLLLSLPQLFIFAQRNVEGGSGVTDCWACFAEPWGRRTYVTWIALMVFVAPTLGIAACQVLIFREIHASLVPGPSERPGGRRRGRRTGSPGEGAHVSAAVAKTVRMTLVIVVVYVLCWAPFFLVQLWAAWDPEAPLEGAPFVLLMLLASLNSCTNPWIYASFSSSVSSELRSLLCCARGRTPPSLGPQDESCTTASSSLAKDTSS
Experimental Details: Binding to Membranes of Mouse Fibroblast Cell Line (LV-2) Transfected with the cDNA Expressing the Human V2 Receptor
Test Parameters: LV-2 cell membranes
Dear colleague, please return just the value in µM, with no unit written.

{"columns": ["Structure String", "Endpoint Result"],
 "data": [
  ["Cc1ccc(F)cc1C(=O)Nc1ccc(C(=O)N2CCCCc3sccc32)c(Cl)c1", 0.0034],
  ["O=C(Nc1ccc(C(=O)N2CCCCc3sc(Cl)cc32)cc1)c1c(Cl)cccc1Cl", 0.004],
  ["O=C(Nc1ccc(C(=O)N2CCCCc3sccc32)c(Cl)c1)c1ccc(Cl)cc1Cl", 0.022]
]}

Q: // lookup IC50 for "O=C(Nc1ccc(C(=O)N2CCCCc3sccc32)c(Cl)c1)c1ccc(F)cc1Cl"
Result: 0.0022
